parameter: glass transition temperature (°C)
Just the number please, in °C, no unit attached.

For orientation, consider the following solved cases.
- compound: "*CCN(*)C(=O)C1(c2ccc(Cl)cc2)CCC1 (repeat unit)"
  parameter: "glass transition temperature"
  measured result: 112.00
- compound: "*Oc1ccc(Oc2ccc(C(=O)Nc3ccc(Oc4ccc(NC(=O)c5ccc(*)cc5)cc4)cc3)cc2)cc1-c1ccccc1 (repeat unit)"
  parameter: "glass transition temperature"
  measured result: 219.00
- compound: "*CCCOCCCCOCCCN1C(=O)c2ccc(C(=O)Oc3ccc(OC(=O)c4ccc5c(c4)C(=O)N(*)C5=O)c(-c4ccccc4)c3)cc2C1=O (repeat unit)"
  parameter: "glass transition temperature"
  measured result: 71.00
- compound: "*N(C)[Si](C)(C)N(C)[Si](*)(C)CC (repeat unit)"
  parameter: "glass transition temperature"
  measured result: -20.00
- compound: "*Nc1ccc(-c2ccc(NC(=O)c3cc(NC(=O)c4ccncc4)cc(C(*)=O)c3)cc2)cc1 (repeat unit)"
  parameter: "glass transition temperature"
  measured result: 339.00
- compound: "*c1cc(C(C(=O)OC)C(=O)OC)c(*)s1 (repeat unit)"
  parameter: "glass transition temperature"
  measured result: -20.10
- compound: "*CC(*)C(=O)OCCCCCCOc1ccc(C(=O)Oc2ccc(OC)cc2)cc1 (repeat unit)"
  parameter: "glass transition temperature"
  measured result: 29.50

Task: Recall and state the measured glass transition temperature for *CCOC(=O)c1ccc(O*)cc1 (repeat unit) .
Result: 84.00

====

Quick list: glass transition temperature per entry.
Just the number please, in °C, no unit attached.

Task: Recall and state the measured glass transition temperature for *CCOCCOc1ccc(C(=O)OC(=O)c2ccc(O*)cc2)cc1 (repeat unit) .
Result: 41.00

Task: Recall and state the measured glass transition temperature for *CC(*)OC(=O)c1ccccc1C (repeat unit) .
Result: 42.50

Task: Recall and state the measured glass transition temperature for *CC(*)CN (repeat unit) .
Result: 190.00

Task: Recall and state the measured glass transition temperature for *CCN(*)C(=O)c1cccc(F)c1 (repeat unit) .
Result: 97.00

Task: Recall and state the measured glass transition temperature for *CC(OC)C1C(=O)N(c2ccc(N(C)C)cc2)C(=O)C1* (repeat unit) .
Result: 221.00

Task: Recall and state the measured glass transition temperature for *Cc1ccc(C[n+]2ccc(-c3cc[n+](*)cc3)cc2)cc1 (repeat unit) .
Result: 95.00

Task: Recall and state the measured glass transition temperature for *CCCCOC(=O)c1ccc([Si](C)(C)c2ccc(C(=O)O*)cc2)cc1 (repeat unit) .
Result: 42.00

Task: Recall and state the measured glass transition temperature for *c1ccc(Oc2ccc(-n3nc(-c4ccccc4)cc3-c3cccc(-c4cc(-c5ccccc5)nn4*)c3)cc2)cc1 (repeat unit) .
Result: 232.00

Task: Recall and state the measured glass transition temperature for *C1C(=O)N(CCCCCCCCOc2ccc(-c3ccc(C#N)cc3)cc2)C(=O)C1* (repeat unit) .
Result: 43.00

Task: Recall and state the measured glass transition temperature for *[Si](*)(C)CCCOCC1COC(C)(C)O1 (repeat unit) .
Result: -48.00

Task: Recall and state the measured glass transition temperature for *Oc1ccc(Oc2ccc(C(=O)Nc3ccc(Cc4ccc(NC(=O)c5ccc(*)cc5)cc4)cc3)cc2)cc1-c1ccccc1 (repeat unit) .
Result: 218.00

Task: Recall and state the measured glass transition temperature for *c1ccc(Oc2cccc(Oc3ccc(N4C(=O)C5CCC(C6CCC7C(=O)N(*)C(=O)C7C6)CC5C4=O)cc3)c2)cc1 (repeat unit) .
Result: 215.00

Task: Recall and state the measured glass transition temperature for *CC(C)N1C(=O)C2C3C=CC(C4C(=O)N(*)C(=O)C34)C2C1=O (repeat unit) .
Result: 212.00

Task: Recall and state the measured glass transition temperature for *C(=O)Nc1ccc(Oc2ccc(NC(=O)c3ccc4c(c3)C(=O)N(c3cccc(P(=O)(c5ccccc5)c5cccc(N6C(=O)c7ccc(*)cc7C6=O)c5)c3)C4=O)cc2)cc1 (repeat unit) .
Result: 235.00

Task: Recall and state the measured glass transition temperature for *Oc1ccc(C(c2ccc(Oc3ccc(C(=O)c4cccc(C(=O)c5ccc(*)cc5)c4)cc3)cc2)(C(F)(F)F)C(F)(F)F)cc1 (repeat unit) .
Result: 168.10

Task: Recall and state the measured glass transition temperature for *c1ccc(-c2nc3cc(-c4ccc5nc(-c6ccccc6)c(-c6ccc(-n7c(=O)c8cc9c(=O)n(*)c(=O)c9cc8c7=O)cc6)nc5c4)ccc3nc2-c2ccccc2)cc1 (repeat unit) .
Result: 217.00

====

Class field: derived from glass transition temperature; ranges b0 = under 70 °C, b1 = from 70 °C up to 200 °C, b2 = 200 °C and over

- compound: "*CC(=O)Nc1ccc(Oc2ccc(-c3ccc(Oc4ccc(NC(=O)CN5C(=O)c6ccc(C(c7ccc8c(c7)C(=O)N(*)C8=O)(C(F)(F)F)C(F)(F)F)cc6C5=O)cc4)cc3)cc2)cc1 (repeat unit)"
  class assignment: "b2"
- compound: "*Oc1ccc(C2(c3ccc(Oc4ccc(C(=O)c5cccc(C(=O)c6ccc(*)cc6)c5)cc4)c(C)c3)c3ccccc3-c3ccccc32)cc1C (repeat unit)"
  class assignment: "b2"
- compound: "*=Nc1ccc(Cc2ccc(NC(=*)C)cc2)cc1 (repeat unit)"
  class assignment: "b1"
- compound: "*CC(*)OC(=O)c1ccc(C)cc1 (repeat unit)"
  class assignment: "b1"
- compound: "*OP(=O)(Oc1ccccc1)Oc1c(Cl)c(Cl)c(*)c(Cl)c1Cl (repeat unit)"
  class assignment: "b1"

Task: Just checking, what class would you give *CC(*)C(=O)OCC(F)(F)C(F)(F)F (repeat unit) here?
Result: b0

Task: Just checking, what class would you give *CC(*)(C)C(=O)Oc1ccc(CC#N)cc1 (repeat unit) here?
Result: b1

Task: Just checking, what class would you give *CCCCOC(=O)CCCCCCCC(=O)O* (repeat unit) here?
Result: b0

Task: Just checking, what class would you give *c1ccc(Oc2ccc(C(=O)c3ccc(Oc4ccc(-c5c6c(c(*)c7ccccc57)C(=O)N(c5ccccc5F)C6=O)cc4)cc3)cc2)cc1 (repeat unit) here?
Result: b2

Task: Just checking, what class would you give *c1ccc(-c2nc3cc(Oc4ccc(NC(=O)c5cc(C(=O)Nc6ccc(Oc7ccc8nc(-c9ccccc9)c(-c9ccc(N%10C(=O)c%11ccc%12c%13c(ccc(c%11%13)C%10=O)C(=O)N(*)C%12=O)cc9)nc8c7)cc6)cc(N6C(=O)c7c(Cl)c(Cl)c(Cl)c(Cl)c7C6=O)c5)cc4)ccc3nc2-c2ccccc2)cc1 (repeat unit) here?
Result: b2

Task: Just checking, what class would you give *CC(COC(=O)c1ccc(N2C(=O)C3C4C=CC(C4)C3C2=O)cc1)O* (repeat unit) here?
Result: b0

Task: Just checking, what class would you give *c1ccc2c(c1)C(=O)N(c1ccc(OC(CCCCCC)COc3ccc(N4C(=O)c5ccc(C(*)(C(F)(F)F)C(F)(F)F)cc5C4=O)cc3)cc1)C2=O (repeat unit) here?
Result: b1

Task: Just checking, what class would you give *C(=O)OCCCCCCCCCCCCOC(=O)c1ccc(NC(=O)c2ccc(N3C(=O)c4ccc(*)cc4C3=O)cc2)cc1 (repeat unit) here?
Result: b1

====

Quick list: glass transition temperature per entry.
Just the number please, in °C, no unit attached.

For orientation, consider the following solved cases.
- compound: "*CC(*)c1ccc(C(=O)c2ccc(C)cc2)cc1 (repeat unit)"
  quantity unit: "°C"
  glass transition temperature: 98.92
- compound: "*O[Si](*)(C)CCCCCCCC (repeat unit)"
  quantity unit: "°C"
  glass transition temperature: -92.00
- compound: "*Oc1ccc(-c2ccc(-c3ccc(Oc4ccc(C(C)(C)c5ccc(*)cc5)cc4)c(C(F)(F)F)c3)cc2)cc1C(F)(F)F (repeat unit)"
  quantity unit: "°C"
  glass transition temperature: 192.00

Task: Recall and state the measured glass transition temperature for *CC(*)(C)C(=O)Oc1ccc(C(=O)/C=C/c2ccc(OC)c(OC)c2)cc1 (repeat unit) .
Result: 137.00

Task: Recall and state the measured glass transition temperature for *c1cc(C(=O)NCCCCCCCC)cc(N2C(=O)c3ccc(-c4ccc5c(c4)C(=O)N(*)C5=O)cc3C2=O)c1 (repeat unit) .
Result: 245.50

Task: Recall and state the measured glass transition temperature for *Oc1ccc(C(=O)Nc2ccc(C(c3ccc(NC(=O)c4ccc(OC(=O)c5ccc(C(*)=O)cc5)cc4)cc3)(C(F)(F)F)C(F)(F)F)cc2)cc1 (repeat unit) .
Result: 266.00

Task: Recall and state the measured glass transition temperature for *c1ccc(C(=O)Nc2ccc(Oc3ccc(NC(=O)c4ccc(-n5c(=O)c6cc7c(=O)n(*)c(=O)c7cc6c5=O)cc4)cc3)cc2)cc1 (repeat unit) .
Result: 360.00

====

Quick list: glass transition temperature per entry.
Just the number please, in °C, no unit attached.

For orientation, consider the following solved cases.
- compound: "*CCCCOC(=O)CCCC(=O)O* (repeat unit)"
  measured result: -36.50
- compound: "*CCCCCCOC(=O)C(CCCCCOc1ccc(/N=N/c2ccncc2)cc1)C(=O)OCCCCCCOc1ccc(-c2ccc(O*)cc2)cc1 (repeat unit)"
  measured result: 53.60
- compound: "*Nc1ccc(C(=O)c2ccc(NC(=O)c3ccc(C(*)=O)cc3)cc2)cc1 (repeat unit)"
  measured result: 300.00
- compound: "*C1=C(c2ccc(-c3ccc4c(c3)C(CCCCCC)(CCCCCC)c3cc(-c5ccc(*)cc5)ccc3-4)cc2)C(=O)N(CCCCCCCC)C1=O (repeat unit)"
  measured result: 122.00
- compound: "*Oc1ccc(C(C)(C)c2ccc(OC(*)=O)c(Cl)c2)cc1 (repeat unit)"
  measured result: 146.00

Task: Recall and state the measured glass transition temperature for *N=P(*)(C)CCCCCC (repeat unit) .
Result: -69.00

Task: Recall and state the measured glass transition temperature for *CCN(CCOC(=O)c1cc(OCc2cc(OCc3ccccc3)cc(OCc3ccccc3)c2)cc(C(=O)O*)c1)c1ccc(/C=C/c2ccc(/C=C/C3=C(C#N)C(=C(C#N)C#N)OC3(c3ccccc3)C(F)(F)F)s2)cc1 (repeat unit) .
Result: 130.00

Task: Recall and state the measured glass transition temperature for *c1ccc(Oc2ccc(C3(c4ccc(Oc5ccc(N6C(=O)c7ccc(Oc8ccccc8Oc8ccc9c(c8)C(=O)N(*)C9=O)cc7C6=O)cc5C(F)(F)F)cc4)c4ccccc4-c4ccccc43)cc2)c(C(F)(F)F)c1 (repeat unit) .
Result: 241.00

Task: Recall and state the measured glass transition temperature for *CC(*)C(=O)OC(F)(F)C(F)(F)C(F)(F)C(F)(F)C(F)(F)C(F)(F)C(F)(F)C(F)(F)F (repeat unit) .
Result: 9.00

Task: Recall and state the measured glass transition temperature for *OC(CCCCC)CC(*)=O (repeat unit) .
Result: -33.00

Task: Recall and state the measured glass transition temperature for *Oc1ccc(OC(=O)c2cccc(Sc3ccc(OC(=O)c4ccc(C(=O)Oc5ccc(Sc6cccc(C(*)=O)c6)cc5)cc4)cc3)c2)cc1-c1ccccc1 (repeat unit) .
Result: 128.00

Task: Recall and state the measured glass transition temperature for *NC1CC(C)(C)CC(C)(CNC(=O)CCCCC(*)=O)C1 (repeat unit) .
Result: 150.80

Task: Recall and state the measured glass transition temperature for *Oc1ccc(NC(=O)c2cccc(C(=O)Nc3ccc(OC4COC5C(*)COC45)cc3)c2)cc1 (repeat unit) .
Result: 218.00

Task: Recall and state the measured glass transition temperature for *c1ccc2c(c1)C(=O)N(c1ccc(-c3ccc(N4C(=O)c5ccc(C(*)(C(F)(F)F)C(F)(F)F)cc5C4=O)c(OC(=O)/C=C/c4ccccc4)c3)cc1OC(=O)/C=C/c1ccccc1)C2=O (repeat unit) .
Result: 181.00
